List of LC50 values.
Test system: Drosophila melanogaster
Experiment: Insecticidal activity against Drosophila melanogaster larvae assessed as mortality compound treated in diet at 25 degC and >90% RH treated for 8 days
Assay type: functional
Settings: feed or water, 192 h
Just the number in mM, nothing appended.

Would you please look over these solved cases?
C=C(C)[C@H]1Cc2c(ccc3c2O[C@@H]2COc4cc(OC)c(OC)cc4[C@@H]2C3=O)O1 : 0.02
CCCC[C@@H]1OC(=O)C2=CCCC[C@H]21 [NEOCNIDILIDE] : 9.9
CCC/C=C1\OC(=O)C2=C1CCC=C2 [LIGUSTILIDE] : 2.54

Proceeding to the next compound to report its LC50.
Item CCCC[C@@H]1OC(=O)c2ccccc21 [(3S)-BUTYLPHTHALIDE] with Drosophila melanogaster - LC50?
4.99
